The measurements presented in this section are drawn from ChEMBL document CHEMBL3616418.

Target Under Test: Proto-oncogene tyrosine-protein kinase Src (Homo sapiens, UniProt P12931, C277S/C483S)
Sequence (P12931 whole entry, looked up, stated change not applied): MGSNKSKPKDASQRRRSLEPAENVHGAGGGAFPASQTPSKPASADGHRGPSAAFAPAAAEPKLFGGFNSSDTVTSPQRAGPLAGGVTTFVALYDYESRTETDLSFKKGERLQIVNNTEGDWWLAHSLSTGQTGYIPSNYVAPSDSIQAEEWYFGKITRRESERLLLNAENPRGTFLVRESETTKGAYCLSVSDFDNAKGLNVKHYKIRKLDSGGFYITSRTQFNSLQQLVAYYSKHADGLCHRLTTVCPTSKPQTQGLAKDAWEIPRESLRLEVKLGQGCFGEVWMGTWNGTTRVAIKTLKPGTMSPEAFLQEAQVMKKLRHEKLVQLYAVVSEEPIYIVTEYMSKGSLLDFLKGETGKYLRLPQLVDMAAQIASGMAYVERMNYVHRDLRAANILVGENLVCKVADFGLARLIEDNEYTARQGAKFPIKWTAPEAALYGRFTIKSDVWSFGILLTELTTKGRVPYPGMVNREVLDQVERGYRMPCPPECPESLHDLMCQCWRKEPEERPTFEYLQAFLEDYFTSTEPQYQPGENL
Assay: Inhibition of c-Src C277S, C483S, […] mutant (unknown origin)
pKi: −log10 of the molar value.

{"Chemical Smiles": "O=C(CCS)Nc1cccc(Nc2nccc(Nc3cc(C4CC4)[nH]n3)n2)c1", "pKi": 6.70}
